Can you tell me Chr location for the items I'm about to list?
test system: MIA (pancreatic cancer) cell genome; experiment: ctDNA coculture with MIA cells, whole genome sequencing: genomic insertion sites, transposons at insertion points and SNVs (pancreatic cancer); format: cell-based, human; conditions: TABLE 4; position on the chromosome of the identified genomic insertion site
Give bare numbers.

The following molecules have reported results that may help.
I would be grateful if you could share the reported Chr location for 67 (nucleic acid, listed as Homo sapiens, listed as DNA, chemistry not fully specified) CCTTAATAGTTAATCTCCTATTAATAAGTAAGTGATTCTTTAATTAAACTTTCCTCATTCAAATGGCCATATGCTTTCTGTCTCTCGACTAGATGCTGAGTGATATACCCCCCA .
40372997

39 (nucleic acid, listed as Homo sapiens) GTATTTAGATTCCCAGACTTTGGAGCCAGATCGGCTGAGTTCAAACCCTGTCTGTGCAACTATCAGCTGTTCAGCTGTGTGACCTTGGGCAAGTTACTTAACCTCTCTGAACCCTGATTCCTCCTGCAAACGGTGGGAAAAATAATAGAACCAATCTCTCTGGGTTGCTGTAAGGATTAAATTAATTTACAGTGCATGTAACATGCTTACAGCAATGTCTGGCACACAGTAAGCACTAAGTATTTGTTGTTATTTGTCATC , same question.
27942978

Item: 50 (nucleic acid, listed as Homo sapiens) CAGTCTTTCAGGACCAGAAGAGATGGATTTTAGGTTTTCCTTCCACTCAATGTATTCTATATGTACCCTAATCAACAAACATGCCTGGTTGTCACAGGTAGAAGGGGTCTCTACTCTGAATCATTCAGAGAAGAAATAATCATATTCTTTCGATGCTATCACTAACACAGGACCGTGATCCGAGACAACCAGGTTCAGTTCTTGATATGTAAAGGAATTTGGGAAAATATCATCTCTCACCACAAAATCTGTATTTTTATGTATATTTAAGCAAAATCCTGTTTTGGTCATCATTTTCTTTACCTTTCTTCTATATCCATCCTAATCTCCCTTTCAGC
18828526

Lab note: each molecule below needs its Chr location filled in.
1. 49 (nucleic acid, listed as Homo sapiens) CTTTAACCTCCTTGTTACGTTTGTCTCTTCCAGAATCGAAGCTGTAAAACTACAAATGGTTCTTCAAATGGAGCCCCAGATGCAGTCCATGACTAAGATCTACCGCGGACCCCTGGACTGGCCTGCTAGCCCATGCTCCAATGTTGATGACATTGAAGGCACCCCTCCCAAGGAAATCTCAACTGCACGACCCCTACTATGCCCCAATTCAGCATGAAGCAGTTAAGAGCGGTTGTCAGCCAACCTCCCCAACAGCACTTGGGTTTTCCTGTTGAGAGGTGGGACTGAGAGA
2. 61 (nucleic acid, listed as Homo sapiens) TATTTTTAAGCAAAGACTTAGAGAGAGAGAGGAAGTTAGCTATGCACATTGTGGGTGCGGTGTGGTTAGGGTGGCCCTGAGATAGGGATATGCCTGGTGTGTTTACGGAACAGCTAAGAGGCCAGGGAACTAGAGGAAATTGAGTGGGAAGGAGAAGAGTAGGAGATTAGTTTTGAAAAGCAAATGGTTTGGGAATATGGATCATGTAAGAGCACATGAGATTTTATAAGGATTTCATTTTACTCAGGGTGAAATGAAGAAGCACTAAAA
3. 55 (nucleic acid, listed as Homo sapiens) GCGGTGGCTCACGCTTGTAATCCCAGCACTTTGGGAGGCCGAGGTGGGCGGATCACGAGGTCAGGAGATCAAGACCACGGTGAAACCCCATCTCTACTAAAAATATAAAAAATTAGCCGGGCGTGGTGGTGGGCGCCTGTAATCCCAGCTACTCAGAGAGGCTGAGGCAGGAGAAGGGCGTGAACCCGGGAGGCGGAGCTTGTAGTGAGCTGAGATCGCGCCACTGCACTCCAGCACCCCAGCCTGGGTGACAGAGCGAGACTCCGTCTCAAAAAAATAATAATAATAATTAAATAAATAA
4. 58 (nucleic acid, listed as Homo sapiens) TAGATGGAGGGGGAAAAACAGGGTGGGGAGCGGGAGGGAGGGAAGGTTTTGCAGAAAGACGGCGGTTAAAAAGTTTATGGGTAGATGGAGGGGGAAAAGAGGGTGGCAAGTGGGAGGAGGAAAGAGGGTGATAAGGGGGGGAAGTGGGGGTGAGCAGTAGGGAGAGAAGGTTTTGTGAAAAAAATGGGGAGAAAGGTTTTGGTTAGACGGGAGAAAAGAGGGTAACAAGTTGGGGAAGGAAAAAGAGGGTAGCTAGGAAGAAGACAAGGTTTTGCGAAAAGATAGCGGCCAGAAAAGAAAGACGGTGGAGAAAGGAAAGACGGTGGGTAAAAAGTGGGTAGATGGAGTGGGGAAAGAGGGT
5. 47 (nucleic acid, listed as Homo sapiens) AGGCCTGGCACAGTGGCTCATGCGTGTAATCCCAACACTGCGGGAAGCTGAGGCAGGAGGATCACTTGAGCCCAGGAGCTCATGGCTGTAGTGAGCTGTGATTGCACCACTGCACTGCACTCCAGCCTGGGCAACAGCAAGACCCTGTCTCCAAAAAAAAAAAACAAAACAAATTAAT

1. 143409567
2. 21413450
3. 103067410
4. 19693028
5. 14247220
